# Test system: Mycobacterium tuberculosis Erdman (autoluminescent)
# assay_explanation: FIC50 (Loewe) at 50% inhibition (log2); higher = more antagonistic
# condition_summary: in vitro model: cholesterol-high 0.2 mM; time point: terminal (~4-5 doublings, model-specific)
Entries and their measured FIC50 follow.
Just the number.

COc1nc2ccc(Br)cc2cc1[C@@H](c1ccccc1)[C@@](O)(CCN(C)C)c1cccc2ccccc12 [bedaquiline] + NNC(=O)c1ccncc1 [isoniazid]
0.335
NNC(=O)c1ccncc1 [isoniazid] + CC(=O)NC[C@H]1CN(c2ccc(N3CCOCC3)c(F)c2)C(=O)O1 [linezolid]
-0.0744
CO[C@H]1/C=C/O[C@@]2(C)Oc3c(C)c(O)c4c(O)c(c(/C=N/N5CCN(C6CCCC6)CC5)c(O)c4c3C2=O)NC(=O)/C(C)=C\C=C\[C@H](C)[C@H](O)[C@@H](C)[C@@H](O)[C@@H](C)[C@H](OC(C)=O)[C@@H]1C [rifapentine] + CO[C@H]1/C=C/O[C@@]2(C)Oc3c(C)c(O)c4c(O)c(c(/C=N/N5CCN(C)CC5)c(O)c4c3C2=O)NC(=O)/C(C)=C\C=C\[C@H](C)[C@H](O)[C@@H](C)[C@@H](O)[C@@H](C)[C@H](OC(C)=O)[C@@H]1C
0.0935
CC(=O)NC[C@H]1CN(c2ccc(N3CCOCC3)c(F)c2)C(=O)O1 [linezolid] + CO[C@H]1/C=C/O[C@@]2(C)Oc3c(C)c(O)c4c(O)c(c(/C=N/N5CCN(C6CCCC6)CC5)c(O)c4c3C2=O)NC(=O)/C(C)=C\C=C\[C@H](C)[C@H](O)[C@@H](C)[C@@H](O)[C@@H](C)[C@H](OC(C)=O)[C@@H]1C [rifapentine]
0.0666
CC(=O)NC[C@H]1CN(c2ccc(N3CCOCC3)c(F)c2)C(=O)O1 [linezolid] + COc1c(N2C[C@@H]3CCCN[C@@H]3C2)c(F)cc2c(=O)c(C(=O)O)cn(C3CC3)c12 [moxifloxacin]
-0.211
COc1nc2ccc(Br)cc2cc1[C@@H](c1ccccc1)[C@@](O)(CCN(C)C)c1cccc2ccccc12 [bedaquiline] + CC(C)/N=c1\cc2n(-c3ccc(Cl)cc3)c3ccccc3nc-2cc1Nc1ccc(Cl)cc1 [clofazimine]
0.0406
CC[C@@H](CO)NCCN[C@@H](CC)CO [ethambutol] + CO[C@H]1/C=C/O[C@@]2(C)Oc3c(C)c(O)c4c(O)c(c(/C=N/N5CCN(C6CCCC6)CC5)c(O)c4c3C2=O)NC(=O)/C(C)=C\C=C\[C@H](C)[C@H](O)[C@@H](C)[C@@H](O)[C@@H](C)[C@H](OC(C)=O)[C@@H]1C
0.916
COc1c(N2C[C@@H]3CCCN[C@@H]3C2)c(F)cc2c(=O)c(C(=O)O)cn(C3CC3)c12 [moxifloxacin] + O=[N+]([O-])c1cn2c(n1)OC[C@@H](OCc1ccc(OC(F)(F)F)cc1)C2 [pretomanid]
0.457

-- ask Find the recorded FIC50 belonging to COc1c(N2C[C@@H]3CCCN[C@@H]3C2)c(F)cc2c(=O)c(C(=O)O)cn(C3CC3)c12 [moxifloxacin] + NC(=O)c1cnccn1 [pyrazinamide] and report it.
-- reply 0.528

-- ask Another compound to look at: CC(C)/N=c1\cc2n(-c3ccc(Cl)cc3)c3ccccc3nc-2cc1Nc1ccc(Cl)cc1 [clofazimine] + NNC(=O)c1ccncc1 [isoniazid]
-- reply 0.197

-- ask Moving on to NNC(=O)c1ccncc1 [isoniazid] + CO[C@H]1/C=C/O[C@@]2(C)Oc3c(C)c(O)c4c(O)c(c(/C=N/N5CCN(C)CC5)c(O)c4c3C2=O)NC(=O)/C(C)=C\C=C\[C@H](C)[C@H](O)[C@@H](C)[C@@H](O)[C@@H](C)[C@H](OC(C)=O)[C@@H]1C [rifampicin]
-- reply 0.355

-- ask Similarly, COc1nc2ccc(Br)cc2cc1[C@@H](c1ccccc1)[C@@](O)(CCN(C)C)c1cccc2ccccc12 [bedaquiline] + NC(=O)c1cnccn1 [pyrazinamide] ?
-- reply 0.224

-- ask Also need CC(C)/N=c1\cc2n(-c3ccc(Cl)cc3)c3ccccc3nc-2cc1Nc1ccc(Cl)cc1 [clofazimine] + CC[C@@H](CO)NCCN[C@@H](CC)CO [ethambutol] , thanks.
-- reply 0.255

-- ask NC(=O)c1cnccn1 [pyrazinamide] + CO[C@H]1/C=C/O[C@@]2(C)Oc3c(C)c(O)c4c(O)c(c(/C=N/N5CCN(C6CCCC6)CC5)c(O)c4c3C2=O)NC(=O)/C(C)=C\C=C\[C@H](C)[C@H](O)[C@@H](C)[C@@H](O)[C@@H](C)[C@H](OC(C)=O)[C@@H]1C , same question.
-- reply 1.19

-- ask Try the compound CC(=O)NC[C@H]1CN(c2ccc(N3CCOCC3)c(F)c2)C(=O)O1 [linezolid] + NC(=O)c1cnccn1 [pyrazinamide]
-- reply 0.0483

-- ask Another compound to check: NNC(=O)c1ccncc1 [isoniazid] + NC(=O)c1cnccn1 [pyrazinamide]
-- reply 0.538
